- test target: UniProtKB P30530
- Sequence (P30530 26-894): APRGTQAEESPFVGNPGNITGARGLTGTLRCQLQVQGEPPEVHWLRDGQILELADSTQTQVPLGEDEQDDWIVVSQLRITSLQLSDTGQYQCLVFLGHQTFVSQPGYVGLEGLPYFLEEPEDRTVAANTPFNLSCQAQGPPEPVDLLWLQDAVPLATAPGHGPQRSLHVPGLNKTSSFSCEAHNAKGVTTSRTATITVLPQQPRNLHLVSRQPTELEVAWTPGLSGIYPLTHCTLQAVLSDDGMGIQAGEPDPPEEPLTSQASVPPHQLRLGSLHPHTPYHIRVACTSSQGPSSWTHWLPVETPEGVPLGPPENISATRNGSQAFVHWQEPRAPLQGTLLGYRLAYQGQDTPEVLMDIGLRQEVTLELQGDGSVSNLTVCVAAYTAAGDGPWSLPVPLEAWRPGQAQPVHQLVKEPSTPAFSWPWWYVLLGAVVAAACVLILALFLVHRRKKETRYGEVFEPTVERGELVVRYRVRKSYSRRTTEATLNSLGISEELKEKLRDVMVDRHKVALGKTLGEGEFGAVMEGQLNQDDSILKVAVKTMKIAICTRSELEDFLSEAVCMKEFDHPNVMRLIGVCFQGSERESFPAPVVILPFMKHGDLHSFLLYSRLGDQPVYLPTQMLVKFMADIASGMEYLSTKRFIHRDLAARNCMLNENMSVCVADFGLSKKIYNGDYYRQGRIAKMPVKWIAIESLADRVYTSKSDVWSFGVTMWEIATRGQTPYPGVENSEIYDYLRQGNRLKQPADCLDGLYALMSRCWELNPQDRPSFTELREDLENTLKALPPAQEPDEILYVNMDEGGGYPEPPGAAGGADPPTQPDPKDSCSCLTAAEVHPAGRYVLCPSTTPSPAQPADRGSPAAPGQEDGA
readout type: IC50 (nM)
Report the value in nM with no unit label.

Ask | Given the entry CCN(CC)CCN1CCc2[nH]c(/C=C3\C(=O)Nc4ccc(F)cc43)c(C)c2C1=O [Compound B, famitinib malate] , report its measured IC50.
Reply | 36.8

Measured values drawn from patent US12240904B2 for this set.
